# study system: OCT2 (Homo sapiens, UniProt O15244)
# assay procedure: Stereoselective uptake into OCT2 (wild-type)-overexpressing HEK293 cells
# details: human, Stereoselectivity Vmax, OCT2; ratio between enantiomers, given as for (R) or for 1
Field: label. Allowed values: label 1 (selectivity ratio at 2 min < 2) or label 0 (selectivity ratio at 2 min >= 2).

Reference set, count: 2
- molecule: "CNCC(O)c1ccccc1 (stereo not shown)"
  study system: "OCT2 (Homo sapiens, UniProt O15244)"
  group: "label 1"
- molecule: "NCC(O)c1cccc(O)c1 (single isomer, unassigned)"
  study system: "OCT2 (Homo sapiens, UniProt O15244)"
  group: "label 0"

Now for a further molecule.
Here's an entry: CNCC(O)c1ccc(O)c(OC)c1 (single isomer, unassigned) . Is its selectivity ratio at 2 min below 2?
label 0

* * *

Below, each entry is listed with its recorded selectivity ratio at 2 min.
# study system: OCT2 (Homo sapiens, UniProt O15244)
# Sequence (O15244 1-555 S270A): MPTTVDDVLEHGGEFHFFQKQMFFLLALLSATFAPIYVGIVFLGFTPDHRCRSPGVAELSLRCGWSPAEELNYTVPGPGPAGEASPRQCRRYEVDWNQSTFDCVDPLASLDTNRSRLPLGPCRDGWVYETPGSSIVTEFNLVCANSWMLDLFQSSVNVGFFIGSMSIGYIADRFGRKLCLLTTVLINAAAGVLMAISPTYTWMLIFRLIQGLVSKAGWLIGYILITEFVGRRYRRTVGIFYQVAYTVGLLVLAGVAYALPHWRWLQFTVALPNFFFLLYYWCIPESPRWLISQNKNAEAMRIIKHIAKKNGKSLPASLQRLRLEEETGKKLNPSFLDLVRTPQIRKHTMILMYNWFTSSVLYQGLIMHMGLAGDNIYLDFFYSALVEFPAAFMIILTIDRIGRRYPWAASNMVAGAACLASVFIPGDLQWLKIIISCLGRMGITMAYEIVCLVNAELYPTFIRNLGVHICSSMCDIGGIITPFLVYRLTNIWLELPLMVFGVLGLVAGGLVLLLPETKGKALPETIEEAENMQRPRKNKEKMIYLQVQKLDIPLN
# assay procedure: Stereoselective uptake into OCT2 (wild-type)-overexpressing HEK293 cells
# details: human, HEK293 cells stably overexpressing human wild-type OCT2, Stereoselectivity Km, OCT2; ratio between enantiomers, given as for (R) or for 1 (first-eluting)
// no unit, no text: just the number

- compound: "NC[C@H](O)c1ccc(O)cc1 [(R)-Octopamine]"
  selectivity ratio at 2 min: 1.63

Now examine the next entry.
Request body: readout selectivity ratio at 2 min, system OCT2 (Homo sapiens, UniProt O15244), query NC[C@@H](O)c1ccc(O)cc1 [(S)-Octopamine] . Return the value.
1.63

* * *

Listed here are compounds together with their documented Stereoselectivity Km.
# study system: SERT (Homo sapiens, UniProt P31645)
# Sequence (P31645 whole entry): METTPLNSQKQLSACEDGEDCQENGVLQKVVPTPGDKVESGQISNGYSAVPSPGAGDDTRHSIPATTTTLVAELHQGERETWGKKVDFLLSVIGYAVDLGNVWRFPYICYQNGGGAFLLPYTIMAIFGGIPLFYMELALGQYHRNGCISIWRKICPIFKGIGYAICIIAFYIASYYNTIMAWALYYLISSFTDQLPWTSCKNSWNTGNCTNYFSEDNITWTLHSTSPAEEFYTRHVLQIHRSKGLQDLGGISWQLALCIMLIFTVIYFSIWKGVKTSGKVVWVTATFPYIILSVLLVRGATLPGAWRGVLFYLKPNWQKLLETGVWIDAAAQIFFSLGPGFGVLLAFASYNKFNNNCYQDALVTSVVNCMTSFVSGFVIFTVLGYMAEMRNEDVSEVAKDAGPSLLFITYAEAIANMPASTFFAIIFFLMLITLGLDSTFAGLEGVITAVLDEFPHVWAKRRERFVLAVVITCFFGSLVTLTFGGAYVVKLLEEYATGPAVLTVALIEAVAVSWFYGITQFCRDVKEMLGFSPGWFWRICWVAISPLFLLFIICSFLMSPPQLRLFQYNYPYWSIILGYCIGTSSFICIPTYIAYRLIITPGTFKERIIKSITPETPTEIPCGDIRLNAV
# assay procedure: Stereoselective uptake into SERT-overexpressing HEK293 cells;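 note: uptake into HEK293 cells stably expressing human SERT over 2 min, enantiomers measured in cell lysate by chiral HPLC-MS/MS, normalized to total protein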
Please state the figure in fold; there is no need to write the unit.

- compound: "CNCC(O)c1ccc(O)c(OC)c1 (single isomer, unassigned) [Metanephrine-2, Metanephrine]"
  study system: "SERT (Homo sapiens, UniProt P31645)"
  reading unit: "fold"
  Stereoselectivity Km: 1.09
- compound: "CNC[C@H](O)c1cccc(O)c1 [(R)-Phenylephrine]"
  study system: "SERT (Homo sapiens, UniProt P31645)"
  reading unit: "fold"
  Stereoselectivity Km: 1.89
- compound: "CNCC(O)c1ccc(O)c(OC)c1 (single isomer, unassigned) [Metanephrine-1, Metanephrine]"
  study system: "SERT (Homo sapiens, UniProt P31645)"
  reading unit: "fold"
  Stereoselectivity Km: 1.09
- compound: "CNC[C@@H](O)c1cccc(O)c1 [(S)-Phenylephrine]"
  study system: "SERT (Homo sapiens, UniProt P31645)"
  reading unit: "fold"
  Stereoselectivity Km: 1.89
- compound: "NCC(O)c1cccc(O)c1 (single isomer, unassigned) [Norphenylephrine-2, Norphenylephrine]"
  study system: "SERT (Homo sapiens, UniProt P31645)"
  reading unit: "fold"
  Stereoselectivity Km: 1.20

If you can, please state the reported Stereoselectivity Km value of NCC(O)c1cccc(O)c1 (single isomer, unassigned) [Norphenylephrine-1, Norphenylephrine] .
1.20

What would you report for C[C@@H]1NCCc2cc(O)c(O)cc21 [Salsolinol-1, Salsolinol] ?
1.85

Let us now turn to C[C@@H]1NCCc2cc(O)c(O)cc21 [Salsolinol-2, Salsolinol]
1.85
